Tested on: L1210 leukemia ip in BDF1 mice, survival T/C
Experiment: NCI In Vivo Anticancer Drug Screen. Data for tumor model L1210 Leukemia (intraperitoneal) in B6D2F1 (BDF1) mice
Settings: endpoint: mean survival time; dose: 200.0 mg/kg/injection; schedule: Q01DX009 (ip); vehicle: saline with Tween-80; higher = longer survival
Toxic doses and inconclusive results are not listed.

COMPOUND	T/C
O=C(Nc1ccsn1)c1ccc(Cl)cc1Cl	91 % of control
O=C1OC(=O)C2C3C=CC(C3=C(c3ccccc3)c3ccccc3)C12 (stereo not given)	100 % of control
CCOc1ccccc1Cl	102 % of control
CCP(=S)(CC)CCCCP(=S)(CC)CC	89 % of control
CC1(C)C2CCC1(C)C(Oc1ccccc1)C2 (stereo not given)	98 % of control

###

Tested on: L1210 leukemia ip in BDF1 mice, survival T/C
Assay: NCI In Vivo Anticancer Drug Screen. Data for tumor model L1210 Leukemia (intraperitoneal) in B6D2F1 (BDF1) mice
Conditions: endpoint: mean survival time; dose: 200.0 mg/kg/injection; schedule: Q04DX002 (ip); vehicle: saline; higher = longer survival
Procedure: The antitumor activity of compounds was measured in mice bearing transplantable tumors. Survival or tumor size were measured and the results are expressed as the measurement made in the treated group (T) divided by the measurement made in the vehicle treated control group (C). The tumor model used in this assay is L1210 Leukemia (intraperitoneal) in B6D2F1 (BDF1) mice
Toxic doses and inconclusive results are not listed.
As shown below, each of these molecules has a reported T/C value.
ASSAY_ENDPOINT: T/C

MOLECULE	MEAS_VALUE
O=C(CCCCCCCCC(=O)OCc1ccccc1)OCc1ccccc1	88 % of control
CCOP(=O)(OCC)OC(=O)N(CC)CC	120 % of control
O=C1C2C(Cl)C(Cl)C(Cl)C(Cl)C2C(=O)N1NC1CCC([N+](=O)[O-])CC1[N+](=O)[O-] (stereo unspecified)	106 % of control
CC(=O)OCCn1c([N+](=O)[O-])cnc1/C=[N+](/[O-])CCOC(C)=O	92 % of control
CCCCCCCCCCCCC(=O)N1CCCCCC1	102 % of control
CCN(CC)C(=O)CCC(=O)O	103 % of control

###

Tested on: L1210 leukemia ip in BDF1 mice, survival T/C
Experiment: NCI In Vivo Anticancer Drug Screen. Data for tumor model L1210 Leukemia (intraperitoneal) in B6D2F1 (BDF1) mice
Settings: endpoint: mean survival time; dose: 400.0 mg/kg/injection; schedule: Q04DX002 (ip); vehicle: saline; higher = longer survival
Toxic doses and inconclusive results are not listed.
T/C by entry:
ASSAY_ENDPOINT: T/C

MOLECULE	SYSTEM_NAME	MEAS_VALUE
Cc1nc(=S)[nH][nH]1	L1210 leukemia ip in BDF1 mice, survival T/C	87 % of control
CCOC(=O)C(C)(C)CN(C)CC(C)(C)C=O	L1210 leukemia ip in BDF1 mice, survival T/C	101 % of control
NC(=O)NC(=O)CC1NC(=O)NC1=O (stereo not given)	L1210 leukemia ip in BDF1 mice, survival T/C	87 % of control
CCN(CC)C(=O)CCC(=O)O	L1210 leukemia ip in BDF1 mice, survival T/C	103 % of control
O=C(NC(=S)Nc1cccc2ccccc12)c1ccccc1F	L1210 leukemia ip in BDF1 mice, survival T/C	102 % of control
CCOC(=O)C(C)(O)C1(Cl)CCC(C(C)(C)C)CC1 (stereo not given)	L1210 leukemia ip in BDF1 mice, survival T/C	100 % of control
CC(=O)OC12CC3(C)CC(C)(C1)CC(OC(C)=O)(C3)C2	L1210 leukemia ip in BDF1 mice, survival T/C	113 % of control
O=C(CCCC(=O)NO)NO	L1210 leukemia ip in BDF1 mice, survival T/C	113 % of control
NP1(N)=NP(N)(N)=NP(N)(N)=N1	L1210 leukemia ip in BDF1 mice, survival T/C	97 % of control
COC(=O)COc1ccc(Cl)cc1Cl	L1210 leukemia ip in BDF1 mice, survival T/C	100 % of control
